- method-description: In vivo pharmacokinetics in CD-1 mice
- Set-up: species or system mouse
- condition-summary: male, CD-1, mouse, plasma, po, 20 mg/kg, oral 20 mg/kg, 5% DMSO: 95% Neobee
endpoint-label: half-life (h)
Entry rule: numbers only, all in h.

response.value for `CCC#CCNC1=CC(=O)c2ccccc2C1=O` (field: half-life) = 3.34

====

- method-description: In vivo pharmacokinetics in CD-1 mice
- Parameters: species or system mouse
- condition-summary: male, CD-1, mouse, plasma, po, 20 mg/kg, oral 20 mg/kg, 5% DMSO: 95% Neobee
Would you mind telling me the reported Tmax of each entry?
Form field: result (number plus unit)

Entry CCC#CCNC1=CC(=O)c2ccccc2C1=O [Compound 3] ; Tmax = 4 h

get_value(item= CC(C)CCNC1=CC(=O)c2ccccc2C1=O [Compound 17, 2-(Isopentylamino)naphthalene-1,4-dione] , readout=Tmax) returns 0.25 h

====

- method-description: In vivo pharmacokinetics in CD-1 mice
- Parameters: species or system mouse
- condition-summary: male, CD-1, mouse, plasma, iv, 5 mg/kg, intravenous 5 mg/kg, 20% DMA: 40% PEG300: 40% H2O
endpoint-label: AUC(0-inf) (ng·h/mL)
Give the number; ng·h/mL is assumed, so skip it.

The measured AUC(0-inf) associated with CCC#CCNC1=CC(=O)c2ccccc2C1=O [Compound 3] reads 448

GET /value?item= CC(C)CCNC1=CC(=O)c2ccccc2C1=O [Compound 17, 2-(Isopentylamino)naphthalene-1,4-dione] &field=AUC(0-inf) returns 637

====

- method-description: In vivo pharmacokinetics in CD-1 mice
- Parameters: species or system mouse
- condition-summary: male, CD-1, mouse, plasma, po, 20 mg/kg, oral 20 mg/kg, 20% DMA-40% PEG300-40% H2O
Kindly state AUC(0-t) for each of the entries shown.

Record summary for CC(C)CCOC1=CC(=O)c2ccccc2C1=O [Compound 25, 2-(Isopentyloxy)naphthalene-1,4-dione] : reported AUC(0-t) = 7.36 µg·h/mL

Looking up CCC#CCNC1=CC(=O)c2ccccc2C1=O [Compound 3] , I found its AUC(0-t) recorded as 0.738 µg·h/mL

====

- method-description: In vivo pharmacokinetics in CD-1 mice
- Set-up: species or system mouse
- condition-summary: male, CD-1, mouse, plasma, po, 20 mg/kg, oral 20 mg/kg, 20% DMA-40% PEG300-40% H2O
Record form. Attribute: MRT inf. Fill in for each entry.
Note: unit h is implicit; provide only the numeric part.

Kindly note the recorded MRT inf for `CC(C)CCOC1=CC(=O)c2ccccc2C1=O` , which is 7.84

`CCC#CCNC1=CC(=O)c2ccccc2C1=O` yielded MRT inf of 5.82

====

- method-description: In vivo pharmacokinetics in CD-1 mice
- Design: species or system mouse
- condition-summary: male, CD-1, mouse, plasma, iv, 5 mg/kg; 3 and 25 at 5 mg/kg
endpoint-label: half-life (h)
// return numeric value only (unit: h, not printed)

Measured half-life, `CC(C)CCOC1=CC(=O)c2ccccc2C1=O` : 4.31

The recorded half-life for entry `CCC#CCNC1=CC(=O)c2ccccc2C1=O` equals 14.7

====

- method-description: In vivo pharmacokinetics in CD-1 mice
- Parameters: species or system mouse
- condition-summary: male, CD-1, mouse, plasma, iv, 5 mg/kg, intravenous; 3 and 25 at 5 mg/kg; read-out: CL
endpoint-label: clearance (mL/min/kg)
Please respond with the number in mL/min/kg and leave the unit unwritten.

clearance reading for `CCC#CCNC1=CC(=O)c2ccccc2C1=O` : 188

// clearance value for `CC(C)CCOC1=CC(=O)c2ccccc2C1=O` : 68.8

====

- method-description: In vivo pharmacokinetics in CD-1 mice
- Design: species or system mouse
- condition-summary: male, CD-1, mouse, plasma, iv, 5 mg/kg, intravenous 5 mg/kg, 20% DMA: 40% PEG300: 40% H2O; read-out: Vss
- Description: PK studies on 3 and 25 were carried out in CD-1 mice. Three males were dosed via oral gavage needle for oral administration at 20 mg/kg (10 mL/kg) or via intravenous administration at 5 mg/kg (10 mL/kg). Blood samples were taken at time intervals between 5 min and 24 hr from each animal. […] Plasma concentrations were measured as described above to determine a concentration vs. time profile. The area under the plasma concentration vs time curve (AUC) was calculated using the linear trapezoidal method. […]
Would you mind telling me the reported Vd of each entry?
Kindly provide the numeric value in L/kg only, without the unit symbol.

Recorded Vd (molecule CC(C)CCNC1=CC(=O)c2ccccc2C1=O [Compound 17, 2-(Isopentylamino)naphthalene-1,4-dione] ): 6.89

The recorded Vd for entry CCC#CCNC1=CC(=O)c2ccccc2C1=O [Compound 3] equals 48.6

====

- method-description: In vivo pharmacokinetics in CD-1 mice
- Set-up: species or system mouse
- condition-summary: male, CD-1, mouse, brain/plasma; listed under intravenous 5 mg/kg; read-out: Brain Plasma Ratio
endpoint-label: Kp

Entry `CCC#CCNC1=CC(=O)c2ccccc2C1=O` — recorded Kp = 0.373

====

- method-description: In vivo pharmacokinetics in CD-1 mice
- Set-up: species or system mouse
- condition-summary: oral 20 mg/kg, 20% DMA-40% PEG300-40% H2O
endpoint-label: AUCinf/D

Field AUCinf/D (entry CC(C)CCOC1=CC(=O)c2ccccc2C1=O [Compound 25, 2-(Isopentyloxy)naphthalene-1,4-dione] ) reads 576 h·(ng/mL)/(mg/kg)

For this compound ( CCC#CCNC1=CC(=O)c2ccccc2C1=O [Compound 3] ), measured AUCinf/D is 49.6 h·(ng/mL)/(mg/kg)

====

- method-description: Liver microsome stability
- Assay type: in vitro ADME
- condition-summary: liver microsomes; in vitro; read-out: Liver microsome stability (t1/2)
endpoint-label: half-life

half-life in this record for `CCC#CCNC1=CC(=O)c2ccccc2C1=O` : > 1 h

Lab note: `CC(C)CCNC1=CC(=O)c2ccccc2C1=O` gave half-life of > 1 h

====

For each record, write down the corresponding half-life.
- method-description: In vivo pharmacokinetics in CD-1 mice
- Set-up: species or system mouse
- condition-summary: male, CD-1, mouse, plasma, po, 20 mg/kg, oral 20 mg/kg, 20% DMA-40% PEG300-40% H2O
Unit h implied. Number only.

Noted for `CCC#CCNC1=CC(=O)c2ccccc2C1=O` : its half-life reads 5.27

The value of half-life measured for the molecule `CC(C)CCOC1=CC(=O)c2ccccc2C1=O` turned out to be 5.56

====

Exercise: state measured MRT inf for each of the compounds provided.
- method-description: In vivo pharmacokinetics in CD-1 mice
- Parameters: species or system mouse
- condition-summary: male, CD-1, mouse, plasma, po, 20 mg/kg, oral 20 mg/kg, 5% DMSO: 95% Neobee

Lab note: CCC#CCNC1=CC(=O)c2ccccc2C1=O [Compound 3] gave MRT inf of 5.71 h

The compound listed as CC(C)CCNC1=CC(=O)c2ccccc2C1=O [Compound 17, 2-(Isopentylamino)naphthalene-1,4-dione] shows MRT inf equal to 2.5 h

====

Give measured concentration at 24 hr for each item. Keep answers brief.
- method-description: In vivo pharmacokinetics in CD-1 mice
- Set-up: species or system mouse
- condition-summary: male, CD-1, mouse, plasma; intravenous, 5 mg/kg; read-out: Clast
Provide only the numeric value, understood in ng/mL.

Form field concentration at 24 hr, entry `CC(C)CCOC1=CC(=O)c2ccccc2C1=O` : 2.26

`CCC#CCNC1=CC(=O)c2ccccc2C1=O` yielded concentration at 24 hr of 1.37

====

Record form. Attribute: AUC(0-inf). Fill in for each entry.
- method-description: In vivo pharmacokinetics in CD-1 mice
- Set-up: species or system mouse
- condition-summary: male, CD-1, mouse, plasma, iv, 5 mg/kg; 3 and 25 at 5 mg/kg
Numbers only; they are read as ng·h/mL.

# compound CCC#CCNC1=CC(=O)c2ccccc2C1=O [Compound 3] ; its AUC(0-inf) = 448

Briefly, AUC(0-inf) measured for CC(C)CCOC1=CC(=O)c2ccccc2C1=O [Compound 25, 2-(Isopentyloxy)naphthalene-1,4-dione] : 1210
